system_tested: P70S6K (Homo sapiens, UniProt P23443, T412E)
Sequence (P23443 whole entry T412E): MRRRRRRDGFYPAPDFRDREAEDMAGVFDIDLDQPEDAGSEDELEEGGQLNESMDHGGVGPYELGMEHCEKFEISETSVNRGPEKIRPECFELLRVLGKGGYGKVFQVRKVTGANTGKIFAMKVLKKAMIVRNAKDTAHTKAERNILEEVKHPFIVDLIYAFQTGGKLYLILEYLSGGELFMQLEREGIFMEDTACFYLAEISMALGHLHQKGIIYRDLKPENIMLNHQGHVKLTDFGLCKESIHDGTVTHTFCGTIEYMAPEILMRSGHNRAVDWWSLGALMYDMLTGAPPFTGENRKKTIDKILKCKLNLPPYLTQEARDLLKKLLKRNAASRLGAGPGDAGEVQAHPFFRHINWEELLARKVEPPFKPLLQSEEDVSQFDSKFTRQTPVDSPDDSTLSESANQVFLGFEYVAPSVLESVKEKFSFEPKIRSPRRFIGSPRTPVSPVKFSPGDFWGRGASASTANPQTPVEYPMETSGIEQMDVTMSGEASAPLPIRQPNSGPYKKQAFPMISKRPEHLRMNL
measurement_notes: P70S6K enzyme assay
condition_parameters: P70S6K T412E mutant 3 nM, 24 μM ATP, FITC-AHA-AKRRRLSSLRA-OH substrate, 90 min at 25° C.; read-out: IC50p70S6K
Method: P70S6K inhibitor compounds are diluted and plated in 96 well plates. […] The proportion of substrate and product (phosphorylated) peptide is analyzed on a Caliper Life Sciences Lab Chip 3000, using a pressure of −1.4 psi, and upstream and downstream voltages of −3000 and −700 respectively. […] To assess the inhibitory potential of the compounds, IC50-values were determined, as shown in Chemical Synthesis section above.
measurement_label: IC50 (nM)

The following molecules have reported results that may help.
> print(dat)
                                   molecule  measurement.label  measure.unit  value.observed
1  CCc1nc(N[C@@H]2CNCC[C@H]2c2ccccc2)c2cccc(C(N)=O)c2n1 (racemic)               IC50            nM             4.8
2  Cc1nc(N[C@@H]2CNCC[C@H]2c2ccccc2)c2cccc(C(N)=O)c2n1 (racemic)               IC50            nM             6.4

a: NC(=O)c1cccc2c(NC3CNCC3c3ccc(F)cc3)ncnc12 (stereo not shown)
b: NC(=O)c1cccc2c(N[C@H]3CNC[C@@H]3c3ccc(F)c(Cl)c3)ncnc12 (racemic)
API: POST /compare with a and b ; response names the item with higher IC50. Response format: the label of the selected entry.
a
(a: 2.6 nM, b: 1.4 nM)

----------
system_tested: P70S6K (Homo sapiens, UniProt P23443, T412E)
measurement_notes: P70S6K enzyme assay
condition_parameters: P70S6K T412E mutant 3 nM, 24 μM ATP, FITC-AHA-AKRRRLSSLRA-OH substrate, 90 min at 25° C.; read-out: IC50p70S6K
pIC50: −log10 of the molar value.
measurement_label: pIC50

> print(dat)
                                   molecule                             system.tested  measurement.label  value.observed
1  NC(=O)c1cccc2c(N[C@H]3CNC[C@H]3c3cccc(OC(F)(F)F)c3)ncnc12 [compound 58]  P70S6K (Homo sapiens, UniProt P23443, T412E)              pIC50            9.01

P: Cc1c(F)cccc1[C@H]1CNC[C@@H]1Nc1ncnc2c(C(N)=O)cccc12 [compound 93]
Q: COc1cccc([C@@H]2CCNC[C@H]2Nc2ncnc3c(C(N)=O)cccc23)c1 (racemic) [compound 135]
R: Cc1nc(N[C@H]2CNC[C@@H]2c2cccc(F)c2)c2cccc(C(N)=O)c2n1 [compound 83]
S: COc1ccc([C@H]2CNC[C@@H]2Nc2ncnc3c(C(N)=O)cccc23)cc1F [compound 63]
Rank the items in ascending order with respect to pIC50. Arrange the labels as the request states and list them.
S, R, Q, P

----------
system_tested: P70S6K (Homo sapiens, UniProt P23443, T412E)
measurement_notes: P70S6K enzyme assay
condition_parameters: P70S6K T412E mutant 3 nM, 24 μM ATP, FITC-AHA-AKRRRLSSLRA-OH substrate, 90 min at 25° C.; read-out: IC50p70S6K
measurement_label: IC50 (nM)

Check out these entries, answers already filled in.
> print(dat)
                                   compound  measure.unit  value.observed
1  NC(=O)c1cccc2c(N[C@H]3CNC[C@@H]3c3ccccc3)ncnc12 (racemic)            nM             4.9
2  NC(=O)c1cccc2c(N[C@H]3CNC[C@@H]3c3ccc4ncccc4c3)ncnc12 (racemic) [compound 69]            nM             3.2

A: NC(=O)c1cccc2c(N[C@H]3CNC[C@@H]3c3cccc(F)c3)ncnc12 [compound 68]
B: NC(=O)c1cccc2c(N[C@@H]3CNCC[C@H]3c3ccccc3)ncnc12 (racemic)
Problem: Given the entries A and B , determine which has the lower reported IC50. Give the label under which the chosen entry appears.
B
